Data provenance: patent US9120749B2

tested on: HT-1197 cells; assay: Cell-based assay: anti-proliferative activity, Cell Counting Kit-8, 72 hours (HT-1197, negative control without MELK expression); details: HT1197 cells (negative control, no MELK expression), 72 hours; hydrobromide
Counter-ions that a name gives are not always drawn.
OBSERVED PROPERTY: IC50 (µM)
Numbers only, in µM.

Problem: Give the measured IC50 of CC(=O)c1cnc2ccc(-c3cc(Cl)c(O)c(Cl)c3)cc2c1Nc1ccc(CN2CCCC2)cc1 [Example 416, hydrobromide] .
Result: 6.1

###

system: HT-1197 cells; test: Cell-based assay: anti-proliferative activity, Cell Counting Kit-8, 72 hours (HT-1197, negative control without MELK expression); details: Homo sapiens, HT1197, 72 h, HT1197 cells (negative control, no MELK expression), 72 hours
Where a name gives a salt, the structure may show the parent alone.
OBSERVED PROPERTY: log10 of IC50 (log10 of the value in µM)
Each number you see is log10 of IC50, and the unit inside the log is µM.

Some compounds with recorded log10 of IC50:
CN1CCN(c2ccc(-c3c(C(=O)C4CC4)cnc4ccc(-c5cc(Cl)c(O)c(Cl)c5)cc34)cc2)CC1; 0.96
CN(C)Cc1ccc(Nc2c(C(=O)C3CCCC3)cnc3ccc(-c4cc(F)c(O)c(Cl)c4)cc23)cc1; 0.18
COc1cc(-c2ccc3ncc(C(C)=O)c(N[C@H]4CC[C@H](CN5CCC[C@H]5CO)CC4)c3c2)cc(Cl)c1O; 0.85
CN(C)C1CCN(c2ccc(Nc3c(C(=O)C4CC4)cnc4ccc(-c5cc(F)c(O)c(Cl)c5)cc34)cn2)C1 (centres unmarked); 0.77
COc1cc(-c2ccc3ncc(C(=O)C(C)C)c(Nc4ccc(CN(C)C)cc4)c3c2)cc(Cl)c1O; -0.09

For every item below, please supply its log10 of IC50.
1. CCOc1cc(-c2ccc3ncc(C(C)=O)c(N[C@H]4CC[C@H](N)CC4)c3c2)cc(Cl)c1O
2. NCc1ccc(Nc2c(C(=O)C3CC3)cnc3ccc(-c4cc(Cl)c(O)c(Cl)c4)cc23)cc1
3. CC(=O)c1cnc2ccc(-c3cc(F)c(O)c(Cl)c3)cc2c1N[C@H]1CC[C@H](CN2CCC[C@@H]2CO)CC1 [Example 808, hydrochloride]
4. COc1cc(-c2ccc3ncc([S+](C)[O-])c(N[C@H]4CC[C@H](N)CC4)c3c2)cc(Cl)c1O (some centres unmarked)
5. O=C(c1cnc2ccc(-c3cc(F)c(O)c(Cl)c3)cc2c1Nc1ccc(Cn2ccnc2)cc1)C1CC1
6. CC(=O)c1cnc2ccc(-c3cc(Cl)c(O)c(Cl)c3)cc2c1Nc1ccc(OCCN(C)C)nc1 [Example 852, hydrochloride]
7. CC(=O)c1cnc2ccc(-c3cc(Cl)c(O)c(Cl)c3)cc2c1Nc1cccc(CCN2CCN(C)CC2)c1
8. NC[C@H]1CC[C@H](Nc2c(C(=O)C3CC3)cnc3ccc(-c4cc(Cl)c(O)c(Cl)c4)cc23)CC1

Result:
1: 0.34; 2: -0.24; 3: 0.91; 4: 1.11; 5: 0.71; 6: 1.34; 7: 1.04; 8: 0.59

Problem: Give the measured log10 of IC50 of CN(C)C1CCN(C[C@H]2CC[C@H](Nc3c(C(=O)C4CC4)cnc4ccc(-c5cc(Cl)c(O)c(Cl)c5)cc34)CC2)C1 (some centres unmarked) .
Result: 0.66

###

system: HT-1197 cells; experiment: Cell-based assay: anti-proliferative activity, Cell Counting Kit-8, 72 hours (HT-1197, negative control without MELK expression); conditions: Homo sapiens, HT1197, 72 h, HT1197 cells (negative control, no MELK expression), 72 hours
Category key, based on recorded IC50: A = under 3 µM, B = from 3 µM up to 6 µM, C = 6 µM and over

COc1cc(-c2ccc3ncc(C(=O)C4CC4)c(Nc4ccc(C(O)CN(C)C)cc4)c3c2)cc(Cl)c1O (centres unmarked); B
O=C(c1cnc2ccc(-c3cc(F)c(O)c(Cl)c3)cc2c1N1CCN(CCN2CCCC2)C(=O)C1)C1CC1; C
CN1CCN(CCc2cccc(Nc3c(C(=O)C4CC4)cnc4ccc(-c5cc(Cl)c(O)c(Cl)c5)cc34)c2)CC1; B
CC(=O)c1cnc2ccc(-c3cc(F)c(O)c(Cl)c3)cc2c1Nc1ccc(N2CCC(N)C2)nc1 (centres unmarked); A
CN1CCN(Cc2ccc(-c3c(C(=O)C4CC4)cnc4ccc(-c5cc(Cl)c(O)c(Cl)c5)cc34)cc2)CC1; B

Problem: Could you place COc1cc(-c2ccc3ncc(C(=O)C4CC4)c(NC4CCN(C5CCNC5)CC4)c3c2)cc(Cl)c1O (centres unmarked) in its proper category? Many thanks.
Result: B

###

system: HT-1197 cells; test: Cell-based assay: anti-proliferative activity, Cell Counting Kit-8, 72 hours (HT-1197, negative control without MELK expression); details: Homo sapiens, HT1197, 72 h, HT1197 cells (negative control), 72 hours
Counter-ions that a name gives are not always drawn.
Label 1.0 when IC50 < 3 µM; otherwise 0.0.

Take a look at these entries with their results.
NC[C@H]1CC[C@@H](Nc2c(C(=O)C3CC3)cnc3ccc(-c4cc(F)c(O)c(Cl)c4)cc23)CC1 [Example 515]; 0.0
O=C(c1cnc2ccc(-c3cc(Cl)c(O)c(Cl)c3)cc2c1Nc1cnn(C2CCNCC2)c1)C1CC1 [Example 511]; 0.0
COc1cc(-c2ccc3ncc(C(=O)C4CC4)c(N[C@H]4CC[C@H](CN5CC[C@@H](F)C5)CC4)c3c2)cc(Cl)c1O [Example 569]; 1.0

Problem: Say whether its IC50 is strictly beneath 3 µM. Entry: NC1CCCN(c2ccc(Nc3c(C(=O)C4CC4)cnc4ccc(-c5cc(F)c(O)c(Cl)c5)cc34)cn2)C1 (stereo not shown) [Example 561]
Result: 1.0

Problem: Say whether its IC50 is strictly beneath 3 µM. Entry: CCCC(=O)c1cnc2ccc(-c3cc(Cl)c(O)c(Cl)c3)cc2c1Nc1ccc(CN(C)C)cc1 [Example 530]
Result: 1.0

Problem: Say whether its IC50 is strictly beneath 3 µM. Entry: COc1cc(-c2ccc3ncc(C(=O)C4CCCC4)c(Nc4cccc(CCN5CCCC5)c4)c3c2)cc(Cl)c1O [Example 924, hydrochloride]
Result: 0.0

###

tested on: T47D cells; experiment: Cell-based assay: anti-proliferative activity, Cell Counting Kit-8, 72 hours (T47D); settings: 72 hours
Structures can show the parent of a compound that is named as a salt.
OBSERVED PROPERTY: IC50 (µM)
Numbers only, in µM.

Some molecules with recorded IC50:
CN(C)C[C@H]1CC[C@H](Nc2c(S(C)(=O)=O)cnc3ccc(-c4cc(Cl)c(O)c(Cl)c4)cc23)CC1; 0.47
CC(=O)c1cnc2ccc(-c3cc(F)c(O)c(Cl)c3)cc2c1Nc1ccc(N2CCN(C)CC2)nc1 [Example 488]; 0.084
CC(=O)c1cnc2ccc(-c3cc(F)c(O)c(Cl)c3)cc2c1N[C@H]1CC[C@H](C(=O)N(C)C)CC1 [Example 870, hydrochloride]; 0.53

Continue with the molecule presented below.
Problem: Give the measured IC50 of CN(C)CCN1CCC(Nc2c(C(=O)C3CC3)cnc3ccc(-c4cc(Cl)c(O)c(Cl)c4)cc23)CC1 .
Result: 0.32

###

tested on: T47D cells; assay: Cell-based assay: anti-proliferative activity, Cell Counting Kit-8, 72 hours (T47D); conditions: Homo sapiens, T47D, 72 h
For each record, write down the corresponding IC50.
Answers are plain numbers, in µM.

Some compounds with recorded IC50:
CN1CCN(Cc2ccc(Nc3c(C(=O)C4CC4)cnc4ccc(-c5cc(Cl)c(O)c(Cl)c5)cc34)cn2)CC1 [Example 682]; 0.55
CN1CCN(c2ccc(Nc3c(C(=O)C4CC4)cnc4ccc(-c5cc(F)c(O)c(F)c5)cc34)cn2)CC1 [Example 778]; 0.1
CCCC(=O)c1cnc2ccc(-c3cc(Cl)c(O)c(Cl)c3)cc2c1Nc1ccc(CN(C)C)cc1 [Example 530]; 0.07
CCC(=O)c1cnc2ccc(-c3cc(F)c(O)c(Cl)c3)cc2c1Nc1ccc(N2CCCC(N)C2)nc1 (stereo not shown) [Example 825]; 0.01
CC(=O)c1cnc2ccc(-c3cc(F)c(O)c(Cl)c3)cc2c1Nc1cnc(C)c(CCN2CCCC2)c1 [Example 867]; 2.9
CC(=O)c1cnc2ccc(-c3cc(F)c(O)c(Cl)c3)cc2c1Nc1cccc(CCN(C)C)c1 [Example 759]; 0.67

Problem: Give the measured IC50 of CCC(=O)c1cnc2ccc(-c3cc(Cl)c(O)c(Cl)c3)cc2c1Nc1ccc(N2CCC(N(C)C)C2)nc1 (stereo not shown) [Example 863] .
Result: 0.44

###

system: T47D cells; assay: Cell-based assay: anti-proliferative activity, Cell Counting Kit-8, 72 hours (T47D); details: Homo sapiens, T47D, 72 h
Label 1 when IC50 < 0.2 µM; otherwise -1.

CC(=O)c1cnc2ccc(-c3cc(Cl)c(O)c(Cl)c3)cc2c1NC1CCCN(CCN(C)C)C1 (stereo not shown) [Example 850]; -1
CN(C)CC(=O)N1CCN(c2c(C(=O)C3CC3)cnc3ccc(-c4ccc(O)c(Cl)c4)cc23)CC1 [Example 441]; -1
CS(=O)(=O)c1cnc2ccc(-c3cc(F)c(O)c(Cl)c3)cc2c1N1CCC(CN2CCCC2)CC1 [Example 407]; -1

Problem: Say whether its IC50 is strictly beneath 0.2 µM. Entry: CC(=O)c1cnc2ccc(-c3cc(F)c(O)c(F)c3)cc2c1N[C@H]1CC[C@H](CN(C)C)CC1 [Example 721]
Result: 1

Problem: Say whether its IC50 is strictly beneath 0.2 µM. Entry: CCCC(=O)c1cnc2ccc(-c3cc(F)c(O)c(Cl)c3)cc2c1Nc1ccc(N2CCNCC2)nc1 [Example 623]
Result: 1

Problem: Say whether its IC50 is strictly beneath 0.2 µM. Entry: CN(C)Cc1ccc(Nc2c(C(=O)C3CC3)cnc3ccc(-c4cc(Cl)c(O)c(Cl)c4)cc23)cn1 [Example 657]
Result: -1

Problem: Say whether its IC50 is strictly beneath 0.2 µM. Entry: CCC(=O)c1cnc2ccc(-c3cc(Cl)c(O)c(Cl)c3)cc2c1N[C@H]1CC[C@H](CN2CCCC2)CC1 [Example 843]
Result: 1

Problem: Say whether its IC50 is strictly beneath 0.2 µM. Entry: CC(=O)c1cnc2ccc(-c3cc(F)c(O)c(Cl)c3)cc2c1N[C@H]1CC[C@H](NC(=O)C(N)C(C)C)CC1 (stereo partly shown) [Example 907]
Result: 1
